Just for reference, the supplement of paper PMC10567573 is where these values come from.

B1: PPEF2 (parent)
chain: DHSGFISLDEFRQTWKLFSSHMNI

- Variants of: B1
- experiment-notes: protein stability index of a GFP-peptide fusion (GPS, HEK-293T) (PSI 1-6); higher = more stable;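 also: lentivirally expressed fusions sorted by FACS into six bins by GFP to DsRed ratio, PSI derived from sequencing read proportions per bin multiplied by bin number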
- condition-context: c terminus: a fixed tail appended
Classification field: met = protein stability index at or over 2; not met = protein stability index under 2.

Could you verify whether the entry "G4H" shows protein stability index of no less than 2?
met

Could you verify whether the entry "D9P" shows protein stability index of no less than 2?
not met

Could you verify whether the entry "D9F" shows protein stability index of no less than 2?
met

Could you verify whether the entry "T14S" shows protein stability index of no less than 2?
met

Could you verify whether the entry "F11D" shows protein stability index of no less than 2?
not met

Could you verify whether the entry "T14V" shows protein stability index of no less than 2?
not met

Could you verify whether the entry "I6M" shows protein stability index of no less than 2?
met

Could you verify whether the entry "M22N" shows protein stability index of no less than 2?
not met

Could you verify whether the entry "L17F" shows protein stability index of no less than 2?
met

Could you verify whether the entry "E10A" shows protein stability index of no less than 2?
met

Could you verify whether the entry "F18S" shows protein stability index of no less than 2?
met

Could you verify whether the entry "F18E" shows protein stability index of no less than 2?
not met

Could you verify whether the entry "W15S" shows protein stability index of no less than 2?
not met

Could you verify whether the entry "D1N" shows protein stability index of no less than 2?
met

Could you verify whether the entry "F5I" shows protein stability index of no less than 2?
not met

Could you verify whether the entry "T14W" shows protein stability index of no less than 2?
not met

Could you verify whether the entry "T14G" shows protein stability index of no less than 2?
not met

Could you verify whether the entry "R12H" shows protein stability index of no less than 2?
not met

Could you verify whether the entry "G4K" shows protein stability index of no less than 2?
not met
